Please provide measured growth for the entries that follow.
Test system: DU-145 prostate
Assay: NCI-60 one-dose screen, 48 h (100 = growth as untreated, 0 = no growth, -100 = all killed)
Settings: 10 µM
The panel holds about 83,000 compounds, 20% with a hit somewhere; the sample as a whole holds those more often.
Reply numerically in %, unit not repeated.

Item CN(C)c1ccc(/C=C/C(=O)c2ccc(NC(=O)CN3C(=O)NC(C)(c4ccccc4)C3=O)cc2)cc1 (centres undefined) has what recorded growth?
75.3

Item `COc1ccc(C(C)=C(c2ccc(OCCCN(C)C)cc2)c2ccc(OCCCN(C)C)cc2)cc1` has what recorded growth?
-96.4

Item `CCCn1c(=O)c2[nH]c(-c3ccc(OCc4nc5ccccc5[nH]4)cc3)nc2n(CCC)c1=O` has what recorded growth?
54

Item `CC(=O)Nc1nc(-c2ccc(N3CCN(C)CC3)c(NS(=O)(=O)c3cccc4c(N(C)C)cccc34)c2)cs1` has what recorded growth?
76.2

Item `CN(C)c1ccc(/C=C/c2nc3ccccc3c(=O)n2CC(=O)Nc2ccc(Cl)cc2)cc1` has what recorded growth?
36.7

Item `O=C(Nc1ccc(OCC(=O)c2ccccc2)cc1)Nc1ccc(Cl)c(C(F)(F)F)c1` has what recorded growth?
49.2

Item `O=C(CNc1nc(-c2ccccc2)cs1)Nc1ccccc1` has what recorded growth?
14.1

Item `COc1ccc(NC(=O)Nc2ccc(OCC(=O)N=Nc3c(O)[nH]c4ccc([N+](=O)[O-])cc34)cc2)cc1` has what recorded growth?
91

Item `CCCn1c(=O)c2[nH]c(-c3ccc(OCc4nc5ccc(C(F)(F)F)cc5[nH]4)cc3)nc2n(CCC)c1=O` has what recorded growth?
58.3

---

System: SK-MEL-2 melanoma
Assay: NCI-60 one-dose screen, 48 h (100 = growth as untreated, 0 = no growth, -100 = all killed)
Conditions: 10 µM
About 83,000 compounds went through this panel and 20% of them were active in at least one assay; those are over-represented in the sample as a whole.
Classification field. Basis: growth. Definitions: class A (below 20%), class B (20% to below 80%), class C (80% or more)

State the class of the compound shown: `CN1CCN(c2ccc(Nc3nc(NCCCNC(=O)c4ccc(F)cc4)c4sccc4n3)cc2)CC1`
class C

State the class of the compound shown: `O=C(Nc1ccc(I)cc1F)c1cc(-c2ccc(F)cc2F)ccc1O`
class A

State the class of the compound shown: `NS(=O)(=O)c1ccc(NC(=O)CSc2ccc(-c3ccccc3)nn2)c(Br)c1`
class C

State the class of the compound shown: `Nc1nnc(-c2c[nH]c3ncccc23)c(-c2c[nH]c3ccc(Br)cc23)n1`
class B

State the class of the compound shown: `O=C(NO)c1ccc(Cn2ccc3c(Nc4ccccc4)ncnc32)cc1`
class A

State the class of the compound shown: OCc1[nH]nc2cc(Nc3ncc4ccc(Br)c(OC5CCC(O)CC5)c4n3)ccc12 (stereo not given)
class A

State the class of the compound shown: `N#Cc1c(NC(=O)c2cccc(C(F)(F)F)c2)sc2c1CCC(O)=C2`
class A

State the class of the compound shown: `COc1cc(-c2nc3cc(Cl)c(Cl)cc3[nH]2)ccc1OCc1nnc(-c2ccc(Br)cc2)o1`
class A

State the class of the compound shown: `COc1ccc(CN2[C@@H](C(=O)NCc3ccc(C(=O)NO)cc3)Cc3c([nH]c4ccccc34)[C@@H]2C)cc1`
class A

State the class of the compound shown: `Nc1cc(-c2cccc(C(=O)NCc3ccc4c(c3)OCO4)c2)ccn1`
class C

State the class of the compound shown: `CN1CCN(c2ccc(Nc3nc(NCCCNC(=O)c4ccccc4)c4sccc4n3)cc2)CC1`
class C

State the class of the compound shown: `Cc1ccc2nc(-c3ccc(-c4nnc(SCC(=O)Nc5ccc(Br)cc5)o4)cc3)[nH]c2c1`
class C

State the class of the compound shown: `CC(=O)Nc1ccc(-c2cn(-c3cccc(C(=O)Nc4ccc(F)c(C(F)(F)F)c4)c3)nn2)cn1`
class C

State the class of the compound shown: `COC(=O)c1c(C(=O)OC)c2n(c1C)[C@@H]([C@@H](C)[C@H]1CC[C@H]3[C@@H]4CCC5=CC(=O)CC[C@]5(C)[C@H]4CC[C@]13C)SC2`
class B

State the class of the compound shown: `Brc1ccc(/C=C/c2n(Cc3ccc4ccccc4c3)c3ccccc3[n+]2Cc2ccc3ccccc3c2)cc1`
class A

State the class of the compound shown: `O=C(CSc1nnc(-c2c[nH]c3ccccc23)n1-c1ccccc1)Nc1ccc(C(=O)/C=C/c2ccc(Cl)cc2)cc1`
class C

State the class of the compound shown: `CC(C)C1=C[C@@]23CC[C@@H]4[C@](C)(CCC[C@]4(C)C(=O)NCc4ccccc4)[C@H]2C[C@@H]1[C@H]1C(=O)OC(=O)[C@H]13`
class B

State the class of the compound shown: COc1ccccc1[C@H]1C(C(=O)c2ccc(Cl)cc2)C2(N[C@@H]1c1ccccc1)C(=O)Nc1ccccc12 (stereo not given in full)
class A

State the class of the compound shown: CN1C(=O)N(C)C2SC(N/N=C/c3ccc(F)cc3)=NC21 (stereo not given)
class B

State the class of the compound shown: O=C(c1ccc(O)cc1)C1[C@H](c2ccccc2Br)[C@@H](c2ccccc2)NC12C(=O)Nc1ccc(Br)cc12 (stereo not given in full)
class B

State the class of the compound shown: `Nc1nc(-c2ccccc2)cc(-c2cc3ccccc3nc2Cl)n1`
class C

State the class of the compound shown: `Cc1ccc2nc(COc3ccc(C(=O)NNC(=S)NC(=O)c4ccccc4)cc3)[nH]c2c1`
class B

State the class of the compound shown: `C=C(C)[C@@H]1CC[C@]2(COP(=O)(OCC)OCC)CC[C@]3(C)[C@H](CC[C@@H]4[C@@](C)(CCCN)[C@H](C(=C)C)CC[C@]43C)[C@@H]12`
class B

State the class of the compound shown: `O=C(CNc1nc(-c2ccccc2)cs1)Nc1cccc(Cl)c1`
class B

State the class of the compound shown: `Cc1ccc(NC(=O)NCn2c(=O)[nH]c3ccccc3c2=O)cc1`
class C

State the class of the compound shown: `N#Cc1c(NC(=O)c2ccc(C(F)(F)F)cc2)sc2c1CCC(O)=C2`
class A

State the class of the compound shown: `O=C(NCCCCCCCCCC[P+](c1ccccc1)(c1ccccc1)c1ccccc1)c1ccc(-n2nc(-c3ccccc3O)nc2-c2ccccc2O)cc1`
class A

State the class of the compound shown: `COc1ccc(-c2ccc(/C=N/NC(=O)c3[nH]c4ccc(Br)cc4c3-c3ccccc3)o2)cc1`
class B

State the class of the compound shown: CCOC(=O)C1=C(N)N(c2ccc(Cl)cc2)C2=C(C(=O)CC(C)(C)C2)C1c1ccc(N2CCOCC2)cc1 (stereo not given)
class C

State the class of the compound shown: `O=C(NO)c1ccc(-c2nc3ccc4[nH]ncc4c3c3c2CCCC3)cc1`
class A

State the class of the compound shown: `O=C(c1ccc(-n2c(=O)[nH]c3ccccc3c2=O)cc1)N1CCOCC1`
class C

State the class of the compound shown: `Cc1ccc(/C=C/C(=O)c2ccc(S(=O)(=O)NCCNc3nc(Nc4ccc(F)cc4)nc(N(C)C)n3)cc2)cc1`
class C

State the class of the compound shown: `COc1ccc(-c2cc(C(=O)N=Nc3c(O)[nH]c4ccccc34)c3ccccc3n2)cc1`
class B

State the class of the compound shown: `N#C/C(=C\c1ccc(N(c2ccccc2)c2ccccc2)cc1)C(N)=O`
class B
